Parameter 'readout' = IC50; parameter 'system' = Proto-oncogene tyrosine-protein kinase Src (Homo sapiens).
Sequence (P12931 2-536 limits assumed): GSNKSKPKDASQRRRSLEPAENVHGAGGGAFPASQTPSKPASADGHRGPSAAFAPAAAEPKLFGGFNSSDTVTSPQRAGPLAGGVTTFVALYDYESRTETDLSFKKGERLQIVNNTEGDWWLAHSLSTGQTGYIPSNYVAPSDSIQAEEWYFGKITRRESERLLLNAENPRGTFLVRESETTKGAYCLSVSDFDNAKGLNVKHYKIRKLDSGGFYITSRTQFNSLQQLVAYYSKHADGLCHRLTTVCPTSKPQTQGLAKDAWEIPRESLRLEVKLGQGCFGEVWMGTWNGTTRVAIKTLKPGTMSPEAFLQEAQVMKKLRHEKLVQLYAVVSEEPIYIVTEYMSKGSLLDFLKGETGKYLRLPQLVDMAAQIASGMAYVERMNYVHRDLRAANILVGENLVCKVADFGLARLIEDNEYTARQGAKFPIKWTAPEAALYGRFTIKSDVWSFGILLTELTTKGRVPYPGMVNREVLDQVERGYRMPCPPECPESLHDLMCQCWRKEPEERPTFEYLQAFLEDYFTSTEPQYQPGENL
Reply with just the number (in µM).

Fill in the blank: the reported IC50 of Nc1cc2cc(-c3cncc(OC[C@@H](N)Cc4c[nH]c5ccccc45)c3)ccc2cn1 is ____.
0.48

What does the data say about its IC50? Entry: N[C@H](COc1cnc(Cl)c(-c2ccc3cnccc3c2)c1)Cc1c[nH]c2ccccc12
12.1

I'd like to know its IC50. The compound in question is N[C@H](COc1cncc(-c2ccc3cnc(F)cc3c2)c1)Cc1c[nH]c2ccccc12
18

Could you share which IC50 value was measured for N[C@H](COc1cncc(-c2ccc3cnccc3c2)c1)Cc1c[nH]c2ccccc12 ?
2

###

Experimental details: Bioavailability in CD1 mouse at 10 mg/kg, po
Type: ADME, organism-based
Experimental parameters: in vivo
Reported endpoint: bioavailability (%)
Just the number please, in %, no unit attached.

Fill blank: measured bioavailability of the compound N[C@H](COc1cncc(-c2ccc3cnc(Cl)cc3c2)c1)Cc1c[nH]c2ccccc12 is ____.
27

Entry Nc1cc2cc(-c3cncc(OC[C@@H](N)Cc4c[nH]c5ccccc45)c3)ccc2cn1 : reported bioavailability = ?
0

Name the recorded bioavailability for N[C@H](COc1cncc(-c2ccc3cnccc3c2)c1)Cc1c[nH]c2ccccc12 .
0

I am curious: what bioavailability value has been reported for Cc1cc(-c2cncc(OC[C@@H](N)Cc3c[nH]c4ccccc34)c2)cc2ccncc12 ?
35

Name the reported bioavailability value associated with the compound N[C@H](COc1cncc(-c2ccc3c(Cl)nccc3c2)c1)Cc1c[nH]c2ccccc12
51

###

Experimental details: Half life in CD1 mouse at 3 mg/kg, iv
Format: ADME, organism-based
Parameters: dose 3 mg/kg, route intravenous
Experimental parameters: in vivo
Classification field: yes = half-life at or over 2 h; no = half-life under 2 h.

Hello, I need to know if N[C@H](COc1cncc(-c2ccc3cnccc3c2)c1)Cc1c[nH]c2ccccc12 has measured half-life not below 2 h. Thanks!
no

Please check the record N[C@H](COc1cncc(-c2ccc3c(Cl)nccc3c2)c1)Cc1c[nH]c2ccccc12 and state if its half-life is at or above 2 h.
yes

Is the recorded value of half-life equal to or greater than 2 h for this compound? Cc1cc(-c2cncc(OC[C@@H](N)Cc3c[nH]c4ccccc34)c2)cc2ccncc12
yes

Given Nc1cc2cc(-c3cncc(OC[C@@H](N)Cc4c[nH]c5ccccc45)c3)ccc2cn1 , state whether its half-life is at least 2 h.
no

###

Target: RAC-alpha serine/threonine-protein kinase (Homo sapiens, UniProt P31749)
Sequence (P31749 whole entry): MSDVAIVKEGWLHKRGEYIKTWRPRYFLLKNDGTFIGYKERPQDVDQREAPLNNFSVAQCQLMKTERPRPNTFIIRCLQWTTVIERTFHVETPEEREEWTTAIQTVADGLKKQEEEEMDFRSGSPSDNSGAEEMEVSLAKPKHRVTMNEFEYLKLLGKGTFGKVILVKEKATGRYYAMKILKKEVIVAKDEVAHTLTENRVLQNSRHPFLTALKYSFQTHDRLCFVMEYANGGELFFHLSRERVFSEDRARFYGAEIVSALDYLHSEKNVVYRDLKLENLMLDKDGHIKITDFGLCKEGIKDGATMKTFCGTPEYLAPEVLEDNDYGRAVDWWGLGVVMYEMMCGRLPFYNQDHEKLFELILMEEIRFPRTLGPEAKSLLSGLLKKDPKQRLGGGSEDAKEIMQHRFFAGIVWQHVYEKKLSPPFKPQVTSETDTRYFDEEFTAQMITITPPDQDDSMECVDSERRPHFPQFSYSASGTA
Experimental details: Inhibition of GSK3 phosphorylation
Please go through the items and note down their IC50.
The response must be a number in µM with no trailing unit.

// lookup IC50 | system=RAC-alpha serine/threonine-protein kinase (Homo sapiens, UniProt P31749) | key= N[C@H](COc1cncc(-c2ccc3cnccc3c2)c1)Cc1c[nH]c2ccccc12
1.5

RAC-alpha serine/threonine-protein kinase (Homo sapiens, UniProt P31749) / IC50 / N[C@H](COc1cnc(Cl)c(-c2ccc3cnccc3c2)c1)Cc1c[nH]c2ccccc12 : value?
3

Give RAC-alpha serine/threonine-protein kinase (Homo sapiens, UniProt P31749) IC50 for Nc1cc2cc(-c3cncc(OC[C@@H](N)Cc4c[nH]c5ccccc45)c3)ccc2cn1
0.93

###

Target: Casein kinase II (Homo sapiens, UniProt P19784+P67870+P68400)
Sequence (P67870 whole entry): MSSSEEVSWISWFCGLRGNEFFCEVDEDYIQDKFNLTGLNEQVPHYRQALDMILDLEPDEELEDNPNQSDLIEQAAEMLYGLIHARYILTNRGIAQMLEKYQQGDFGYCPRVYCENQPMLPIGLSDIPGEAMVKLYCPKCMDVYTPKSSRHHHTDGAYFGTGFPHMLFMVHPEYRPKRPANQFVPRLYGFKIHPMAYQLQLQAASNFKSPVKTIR
Sequence (P68400 whole entry): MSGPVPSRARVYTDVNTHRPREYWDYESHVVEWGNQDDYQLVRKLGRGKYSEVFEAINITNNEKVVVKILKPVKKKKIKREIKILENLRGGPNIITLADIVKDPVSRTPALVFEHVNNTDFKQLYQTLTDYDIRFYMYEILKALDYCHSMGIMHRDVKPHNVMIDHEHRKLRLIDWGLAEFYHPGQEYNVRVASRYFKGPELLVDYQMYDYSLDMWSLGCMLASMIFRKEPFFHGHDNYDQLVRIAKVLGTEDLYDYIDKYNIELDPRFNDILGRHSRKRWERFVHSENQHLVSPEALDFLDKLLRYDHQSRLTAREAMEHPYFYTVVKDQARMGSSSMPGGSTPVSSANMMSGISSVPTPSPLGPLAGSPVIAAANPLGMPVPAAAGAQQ
Sequence (P19784 whole entry): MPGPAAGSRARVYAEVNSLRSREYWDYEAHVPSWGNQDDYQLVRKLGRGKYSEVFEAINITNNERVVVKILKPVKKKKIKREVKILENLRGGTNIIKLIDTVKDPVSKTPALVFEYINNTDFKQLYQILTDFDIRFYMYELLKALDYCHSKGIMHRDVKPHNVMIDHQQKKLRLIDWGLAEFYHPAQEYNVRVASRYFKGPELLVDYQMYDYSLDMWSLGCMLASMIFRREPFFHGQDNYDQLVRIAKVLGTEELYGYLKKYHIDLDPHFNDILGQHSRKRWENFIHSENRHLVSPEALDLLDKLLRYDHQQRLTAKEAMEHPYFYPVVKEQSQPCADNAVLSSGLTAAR
Experimental details: Inhibition of CK2 at 5 uM ATP
Reported endpoint: IC50 (µM)
All answers are understood in µM, so give the number only.

Param item = N[C@H](COc1cnc(Cl)c(-c2ccc3cnccc3c2)c1)Cc1c[nH]c2ccccc12 ; retrieve measured IC50.
12.7

Which IC50 value is on record for Nc1cc2cc(-c3cncc(OC[C@@H](N)Cc4c[nH]c5ccccc45)c3)ccc2cn1 ?
0.62

###

Experimental details: Antiproliferative activity against mouse FL5.12 cells overexpressing Akt1 by MTT assay
Reported endpoint: pIC50
The scale used: pIC50 is minus the common logarithm of the concentration in molar units.

Recorded pIC50 for N[C@H](COc1cncc(-c2ccc3cnccc3c2)c1)Cc1c[nH]c2ccccc12 , please?
6.38

###

Target: cAMP-dependent protein kinase (PKA) (Homo sapiens, UniProt P22694+P17612+P22612)
Experimental details: Inhibition of PKA at 5 uM ATP
Type: protein assay
Reported endpoint: IC50 (nM)
# value in nM; strip the unit string

Entry Nc1cc2cc(-c3cncc(OC[C@@H](N)Cc4c[nH]c5ccccc45)c3)ccc2cn1 has what IC50?
8

Request the reported IC50 associated with N[C@H](COc1cncc(-c2ccc3cnc(F)cc3c2)c1)Cc1c[nH]c2ccccc12
48

Dear colleague, I am looking for the recorded IC50 of the following compound: C#Cc1ncc(OC[C@@H](N)Cc2c[nH]c3ccccc23)cc1-c1ccc2cnccc2c1
1

Form field: reported IC50 of N[C@H](COc1cnc(Cl)c(-c2ccc3cnccc3c2)c1)Cc1c[nH]c2ccccc12
5

###

Experimental details: AUC in CD1 mouse at 10 mg/kg, po
Assay type: ADME, organism-based
Set-up: dose 10 mg/kg, route oral
Experimental parameters: plasma
Reported endpoint: AUC (ng·h/mL)
Reply with just the number (in ng·h/mL).

What does the data say about its AUC? Entry: N[C@H](COc1cncc(-c2ccc3cnc(Cl)cc3c2)c1)Cc1c[nH]c2ccccc12
910

Given the entry N[C@H](COc1cncc(-c2ccc3c(Cl)nccc3c2)c1)Cc1c[nH]c2ccccc12 , report its measured AUC.
3900

Which AUC reading was recorded for the compound Cc1cc(-c2cncc(OC[C@@H](N)Cc3c[nH]c4ccccc34)c2)cc2ccncc12 ?
1500

###

Kindly supply the reported pIC50 values for the records listed here.
On this scale, pIC50 is minus log10 of a concentration expressed in M (mol/L).

Hello, I am looking for reported pIC50 with RAC-beta serine/threonine-protein kinase (Homo sapiens, UniProt P31751) for C#Cc1ncc(OC[C@@H](N)Cc2c[nH]c3ccccc23)cc1-c1ccc2cnccc2c1 . Could you help?
8.30

Any idea what pIC50 came out for Nc1cc2cc(-c3cncc(OC[C@@H](N)Cc4c[nH]c5ccccc45)c3)ccc2cn1 on RAC-beta serine/threonine-protein kinase (Homo sapiens, UniProt P31751)?
7.68

Given the entry N[C@H](COc1cnc(Cl)c(-c2ccc3cnccc3c2)c1)Cc1c[nH]c2ccccc12 , what pIC50 was observed with RAC-beta serine/threonine-protein kinase (Homo sapiens, UniProt P31751)?
8.30

###

Target: Protein kinase C gamma type (Homo sapiens, UniProt P05129)
Reported endpoint: pIC50
Remember the convention: pIC50 equals -log10 of concentration in molar.

Would you kindly share the measured pIC50 for C#Cc1ncc(OC[C@@H](N)Cc2c[nH]c3ccccc23)cc1-c1ccc2cnccc2c1 ?
6.59

Sample Nc1cc2cc(-c3cncc(OC[C@@H](N)Cc4c[nH]c5ccccc45)c3)ccc2cn1 — what was its pIC50?
7.51

Which pIC50 is listed for N[C@H](COc1cnc(Cl)c(-c2ccc3cnccc3c2)c1)Cc1c[nH]c2ccccc12 ?
6.27

###

Experimental details: AUC in CD1 mouse at 30 mg, sc
Format: ADME, organism-based
Experimental parameters: plasma
Reported endpoint: AUC (ng·h/mL)
Report as a plain number; the unit ng·h/mL is understood.

Item under review: N[C@H](COc1cncc(-c2ccc3cnccc3c2)c1)Cc1c[nH]c2ccccc12 . Reported AUC?
7600

Look at this compound and give its reported AUC. Nc1cc2cc(-c3cncc(OC[C@@H](N)Cc4c[nH]c5ccccc45)c3)ccc2cn1
6900

###

Here we list molecules with their recorded IC50 when tested on UniProt P06493.
Sequence (P06493 whole entry): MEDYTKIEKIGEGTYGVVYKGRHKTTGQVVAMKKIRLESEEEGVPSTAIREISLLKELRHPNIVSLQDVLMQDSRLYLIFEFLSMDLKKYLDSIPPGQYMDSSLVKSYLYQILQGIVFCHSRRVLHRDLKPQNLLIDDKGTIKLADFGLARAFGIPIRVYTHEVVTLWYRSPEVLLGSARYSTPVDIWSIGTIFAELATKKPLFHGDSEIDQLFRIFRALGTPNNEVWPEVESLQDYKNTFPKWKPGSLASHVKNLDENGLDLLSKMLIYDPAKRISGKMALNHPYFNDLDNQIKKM
State the answer as a number, implicitly in nM.

Checklist item: IC50 tested on UniProt P06493, entry N[C@H](COc1cnc(Cl)c(-c2ccc3cnccc3c2)c1)Cc1c[nH]c2ccccc12 , value?
870

Find the measured IC50: item C#Cc1ncc(OC[C@@H](N)Cc2c[nH]c3ccccc23)cc1-c1ccc2cnccc2c1 , target or system UniProt P06493.
4900

Value wanted: IC50 (UniProt P06493) of entry N[C@H](COc1cncc(-c2ccc3cnc(F)cc3c2)c1)Cc1c[nH]c2ccccc12
3400

Which IC50 is reported with UniProt P06493 for this entry: Nc1cc2cc(-c3cncc(OC[C@@H](N)Cc4c[nH]c5ccccc45)c3)ccc2cn1 ?
22

###

Could you please report measured pIC50 for the items listed next?
Target: UniProtKB Q02156
Sequence (Q02156 whole entry): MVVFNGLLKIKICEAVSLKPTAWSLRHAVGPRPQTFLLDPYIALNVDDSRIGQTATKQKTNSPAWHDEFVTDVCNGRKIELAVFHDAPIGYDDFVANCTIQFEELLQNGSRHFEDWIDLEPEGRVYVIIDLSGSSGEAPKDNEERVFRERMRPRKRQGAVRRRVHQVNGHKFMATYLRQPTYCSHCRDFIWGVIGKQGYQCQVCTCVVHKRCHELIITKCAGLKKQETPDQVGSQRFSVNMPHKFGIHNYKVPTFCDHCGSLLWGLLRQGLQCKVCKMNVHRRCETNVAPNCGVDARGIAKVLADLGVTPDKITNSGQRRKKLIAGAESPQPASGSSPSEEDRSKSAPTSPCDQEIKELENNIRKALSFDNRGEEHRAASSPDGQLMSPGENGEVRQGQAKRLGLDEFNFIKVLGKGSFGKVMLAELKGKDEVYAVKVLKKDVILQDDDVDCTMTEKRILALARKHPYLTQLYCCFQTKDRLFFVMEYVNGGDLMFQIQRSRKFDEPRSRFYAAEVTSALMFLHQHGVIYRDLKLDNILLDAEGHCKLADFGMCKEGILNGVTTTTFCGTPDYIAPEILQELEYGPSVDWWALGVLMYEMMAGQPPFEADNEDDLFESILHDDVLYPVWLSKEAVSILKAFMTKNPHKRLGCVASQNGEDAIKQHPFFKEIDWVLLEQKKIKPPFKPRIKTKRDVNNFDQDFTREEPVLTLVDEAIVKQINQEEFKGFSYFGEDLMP
// scale note: pIC50 = -log10(conc_M); give the bare number

Please report the recorded pIC50 for C#Cc1ncc(OC[C@@H](N)Cc2c[nH]c3ccccc23)cc1-c1ccc2cnccc2c1 .
5.05

Any idea what pIC50 was measured for N[C@H](COc1cncc(-c2ccc3cnccc3c2)c1)Cc1c[nH]c2ccccc12 ?
5.21

Name the recorded pIC50 for Nc1cc2cc(-c3cncc(OC[C@@H](N)Cc4c[nH]c5ccccc45)c3)ccc2cn1 .
5.08
